The reported numbers originate from patent US12054449B2.

assay: Thermodynamic solubility by UPLC in biological media (FaSSGF, FaSSIF); type: physicochemical; settings: fasted simulated intestinal fluid (FaSSIF), fassif, thermodynamic from solid; fasted simulated intestinal fluid, 37° C., 24 h orbital shaker; all solids dissolved; read-out: FaSSIF solubility after 24 h
EXPERIMENTAL_READOUT: solubility at 24 h (mg/mL)

>  <COMPOUND_SMILES>
C[C@H](OC(N)=O)[C@@H](O)c1ccccc1Cl

>  <EXPERIMENTAL_READOUT>
solubility at 24 h

>  <OBSERVED_RESULT>
14.1

$$$$
